All values here come from patent US20110059033A1.

Protocol Summary: Maximum absorption wavelength (λmax) of the illustrative compounds in solvent
Assay type: physicochemical
Assay Context: EtOAc
Please go through the items and note down their maximum absorption wavelength (λmax).
Give bare numbers, in nm.

Compound | maximum absorption wavelength (λmax) [nm]
CC(CCOc1ccc(OCCC(C)CC(C)(C)C)c2c1SC(=C(C#N)C(=O)C(C)(C)C)S2)CC(C)(C)C (centres unmarked) | 382
CCCCC(CC)COc1ccc(OCC(CC)CCCC)c2c1SC(=C(C#N)C#N)S2 (centres unmarked) | 369
CCCCC(CC)C(=O)Oc1ccc(OC(=O)C(CC)CCCC)c2c1SC(=C(C#N)C(N)=O)S2 (centres unmarked) | 357

Provide each entry's maximum absorption wavelength (λmax) from the list below.
1. CC(CCOc1ccc(OCCC(C)CC(C)(C)C)c2c1SC(=C(C#N)C#N)S2)CC(C)(C)C (centres unmarked)
2. CCCCC(CC)C(=O)Oc1ccc(OC(=O)C(CC)CCCC)c2c1SC(=C(C#N)C(=O)C(C)(C)C)S2 (centres unmarked)
3. CC(C)(C)C(=O)C(C#N)=C1Sc2c(OCCO)ccc(OCCO)c2S1
4. CCCCC(CC)COc1ccc(OCC(CC)CCCC)c2c1SC(=C(C#N)C(=O)C(C)(C)C)S2 (centres unmarked)

369
375
382
382

Bench note: what maximum absorption wavelength (λmax) did CCCCC(CC)C(=O)Oc1ccc(OC(=O)C(CC)CCCC)c2c1SC(=C(C#N)C#N)S2 (centres unmarked) show? 363
